# EC50 annotations
Target: T1, hCD112R mFC recombinant protein (human; murine, UniProt Q6DKI7 41-160)
T1 construct: range 41-160; expressed in 293E cells; also called hCD112R ECD mFC; hCD112R-ECD-mFC; not shown: murine IgG2a Fc domain (MX2-mFc vector)
T1 sequence (looked up): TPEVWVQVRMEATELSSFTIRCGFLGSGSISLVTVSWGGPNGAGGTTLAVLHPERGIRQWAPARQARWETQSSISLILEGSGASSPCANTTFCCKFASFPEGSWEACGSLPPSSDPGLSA
Assay: ELISA, coated hCD112R-ECD-mFC
The figure you give is taken to be in ng/mL; do not add the unit.

binder | reported.measurement
Hu7 (antibody, IgG4, V domains shown, humanized IgG4; also called Hu-07) VH: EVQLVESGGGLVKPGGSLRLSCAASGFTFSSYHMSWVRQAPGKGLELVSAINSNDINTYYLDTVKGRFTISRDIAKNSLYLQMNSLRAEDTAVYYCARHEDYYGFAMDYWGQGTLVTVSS VL: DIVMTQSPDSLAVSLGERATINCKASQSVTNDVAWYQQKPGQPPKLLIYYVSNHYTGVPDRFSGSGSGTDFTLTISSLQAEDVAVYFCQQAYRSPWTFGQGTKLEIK | 4.32
Hu34 (antibody, IgG4, V domains shown, humanized IgG4) VH: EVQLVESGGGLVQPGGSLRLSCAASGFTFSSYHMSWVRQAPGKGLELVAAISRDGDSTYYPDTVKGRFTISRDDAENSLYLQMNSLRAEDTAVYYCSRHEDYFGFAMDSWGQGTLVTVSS VL: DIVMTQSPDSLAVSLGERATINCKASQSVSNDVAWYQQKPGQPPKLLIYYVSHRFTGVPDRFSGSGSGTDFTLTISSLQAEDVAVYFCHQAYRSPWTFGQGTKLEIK | 3.68
Hu11 (antibody, IgG4, V domains shown, humanized IgG4) VH: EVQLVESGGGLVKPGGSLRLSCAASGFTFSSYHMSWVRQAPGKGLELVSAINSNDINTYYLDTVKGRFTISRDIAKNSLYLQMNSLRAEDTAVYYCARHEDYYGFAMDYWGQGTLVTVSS VL: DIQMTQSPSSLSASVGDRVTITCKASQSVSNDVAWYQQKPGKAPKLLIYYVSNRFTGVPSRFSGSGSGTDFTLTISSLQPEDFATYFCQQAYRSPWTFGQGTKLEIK | 2.75
Hu5 (antibody, IgG4, V domains shown, humanized IgG4; also called Hu-05) VH: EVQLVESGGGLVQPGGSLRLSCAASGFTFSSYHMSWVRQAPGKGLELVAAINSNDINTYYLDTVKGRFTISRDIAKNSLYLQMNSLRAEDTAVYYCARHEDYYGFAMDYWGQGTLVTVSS VL: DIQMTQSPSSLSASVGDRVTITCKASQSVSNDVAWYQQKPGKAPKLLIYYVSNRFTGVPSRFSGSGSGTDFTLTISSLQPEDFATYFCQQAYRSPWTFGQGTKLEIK | 2.75

Give the measured EC50 for Hu51 (antibody, IgG4, V domains shown, humanized IgG4) VH: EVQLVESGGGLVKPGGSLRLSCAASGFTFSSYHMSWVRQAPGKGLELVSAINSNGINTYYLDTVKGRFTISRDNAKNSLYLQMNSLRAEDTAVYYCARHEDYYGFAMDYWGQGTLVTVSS VL: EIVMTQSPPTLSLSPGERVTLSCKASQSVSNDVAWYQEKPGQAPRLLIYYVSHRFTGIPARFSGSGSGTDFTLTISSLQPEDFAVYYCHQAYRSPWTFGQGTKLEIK
6.63
